- Test system: COLO 205
- ASSAY_PROTOCOL: NCI tumour cell line growth inhibition, 48 h
Activity calls are given as the source filed them. Rule as the data show it: active = GI50 up to about 1.1 µM and inactive = higher.
Log the outcome using a class from active, inactive

What outcome does the record of this test show for Cc1sccc1C(=S)Nc1ccc(Cl)c(/C=N/OC(C)(C)C)c1 ?
inactive

What outcome does the record of this test show for Oc1cc(-c2ccccc2Cl)nc2cc3c(cc12)OCO3 ?
active

What outcome does the record of this test show for Nc1nc2c3nc(Nc4ccccc4)sc3nc(=O)n2c2sc(Nc3ccccc3)nc12 ?
inactive

What outcome does the record of this test show for C/C=C/COC(=O)CO[N+](=O)[O-] ?
inactive

What outcome does the record of this test show for CC(CCN)(CCN)[N+](=O)[O-] ?
inactive

What outcome does the record of this test show for Cc1cc(C)c(-n2[nH]c(=O)n(C)c2=O)c(C)c1 ?
inactive
